assayed-system: T1, hCD112R mFC recombinant protein (human; murine, UniProt Q6DKI7 41-160)
T1 construct: range 41-160; expressed in 293E cells; also called hCD112R ECD mFC; hCD112R-ECD-mFC; not shown: murine IgG2a Fc domain (MX2-mFc vector)
T1 sequence (looked up): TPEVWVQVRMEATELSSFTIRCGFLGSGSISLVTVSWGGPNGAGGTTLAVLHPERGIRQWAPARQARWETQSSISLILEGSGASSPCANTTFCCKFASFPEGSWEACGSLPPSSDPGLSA
assay-method-text: FACS competition, hCD112R mFc on CHO CD112 cells
quantity-kind: IC50 (µg/mL)
Give the quantity in µg/mL, number only.

What does the record list as IC50 for Hu4 (antibody, IgG4, V domains shown, humanized IgG4; also called Hu-04) VH: EVQLVESGGGLVQPGGSLRLSCAASGFTFSSYHMSWVRQAPGKGLELVAAINSNDINTYYLDTVKGRFTISRDIAKNSLYLQMNSLRAEDTAVYYCARHEDYYGFAMDYWGQGTLVTVSS VL: DIVMTQSPDSLAVSLGERATINCKASQSVSNDVAWYQQKPGQPPKLLIYYVSHRFTGVPDRFSGSGSGTDFTLTISSLQAEDVAVYFCHQAYRSPWTFGQGTKLEIK ?
4.22

Now give it for Hu56 (antibody, IgG4, V domains shown, humanized IgG4) VH: EVQLVESGGGLVQPGGSLRLSCAASGFTFSSYHMSWIRQAPGKGLELVAAINSNGINTYYLDTVKGRFTISRDNAKNSLYLQMNSLRAEDTAVYYCARHEDYYGFAMDYWGQGTLVTVSS VL: AIQMTQSPSSLSASVGDRVTITCKASQSVTNDVAWYQQKPGKAPKLLIYYVSNHYTGVPSRFSGSGSGTDFTLTISSLQPEDFATYFCQQAYRSPWTFGQGTKLEIK too.
3.39

Now give it for Hu35 (antibody, IgG4, V domains shown, humanized IgG4) VH: EVQLVESGGGLVQPGGSLRLSCAASGFTFSSYHMSWVRQAPGKGLELVAAISRDGDSTYYPDTVKGRFTISRDDAENSLYLQMNSLRAEDTAVYYCSRHEDYFGFAMDSWGQGTLVTVSS VL: DIQMTQSPSSLSASVGDRVTITCKASQSVSNDVAWYQQKPGKAPKLLIYYVSNRFTGVPSRFSGSGSGTDFTLTISSLQPEDFATYFCQQAYRSPWTFGQGTKLEIK too.
3.4

Now give it for Hu22 (antibody, IgG4, V domains shown, humanized IgG4) VH: EVQLVESGGGLVKPGGSLRLSCAASGFTFSSYHMSWVRQAPGKGLELVSAISRDGDSTYYPDTVKGRFTISRDDAENSLYLQMNSLRAEDTAVYYCSRHEDYFGFAMDSWGQGTLVTVSS VL: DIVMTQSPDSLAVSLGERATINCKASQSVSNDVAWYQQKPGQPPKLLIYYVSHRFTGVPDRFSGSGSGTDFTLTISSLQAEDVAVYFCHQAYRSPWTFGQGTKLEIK too.
2.67

Now give it for Hu13 (antibody, IgG4, V domains shown, humanized IgG4) VH: EVQLVESGGGLVKPGGSLRLSCAASGFTFSSYHMSWVRQAPGKGLELVSAISRDGDSTYYPDTVKGRFTISRDNAKNSLYLQMNSLRAEDTAVYYCSRHEDYFGFAMDSWGQGTLVTVSS VL: DIVMTQSPDSLAVSLGERATINCKASQSVTNDVAWYQQKPGQPPKLLIYYVSNHYTGVPDRFSGSGSGTDFTLTISSLQAEDVAVYFCQQAYRSPWTFGQGTKLEIK too.
2.19

Now give it for Hu32 (antibody, IgG4, V domains shown, humanized IgG4) VH: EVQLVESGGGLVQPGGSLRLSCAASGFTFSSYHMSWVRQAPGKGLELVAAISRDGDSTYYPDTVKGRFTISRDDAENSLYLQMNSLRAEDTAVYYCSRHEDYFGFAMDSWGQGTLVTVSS VL: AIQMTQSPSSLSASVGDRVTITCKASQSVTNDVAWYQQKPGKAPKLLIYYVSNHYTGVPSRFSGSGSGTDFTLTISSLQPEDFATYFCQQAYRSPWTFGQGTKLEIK too.
2.82

Now give it for Hu20 (antibody, IgG4, V domains shown, humanized IgG4) VH: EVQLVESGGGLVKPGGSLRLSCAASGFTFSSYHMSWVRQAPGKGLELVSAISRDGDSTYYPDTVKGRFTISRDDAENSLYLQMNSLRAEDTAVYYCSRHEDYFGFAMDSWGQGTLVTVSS VL: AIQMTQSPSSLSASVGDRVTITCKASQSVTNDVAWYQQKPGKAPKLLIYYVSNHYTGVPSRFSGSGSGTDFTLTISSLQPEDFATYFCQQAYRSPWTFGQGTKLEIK too.
2.25

Now give it for Hu31 (antibody, IgG4, V domains shown, humanized IgG4) VH: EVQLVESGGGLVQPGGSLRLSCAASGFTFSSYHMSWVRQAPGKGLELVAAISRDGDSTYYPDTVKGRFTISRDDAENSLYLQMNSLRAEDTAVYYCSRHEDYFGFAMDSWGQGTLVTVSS VL: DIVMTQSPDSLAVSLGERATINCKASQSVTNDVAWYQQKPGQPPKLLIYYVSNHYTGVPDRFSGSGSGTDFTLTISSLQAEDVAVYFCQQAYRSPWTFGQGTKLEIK too.
2.52

Now give it for Hu28 (antibody, IgG4, V domains shown, humanized IgG4) VH: EVQLVESGGGLVQPGGSLRLSCAASGFTFSSYHMSWVRQAPGKGLELVAAISRDGDSTYYPDTVKGRFTISRDNAKNSLYLQMNSLRAEDTAVYYCSRHEDYFGFAMDSWGQGTLVTVSS VL: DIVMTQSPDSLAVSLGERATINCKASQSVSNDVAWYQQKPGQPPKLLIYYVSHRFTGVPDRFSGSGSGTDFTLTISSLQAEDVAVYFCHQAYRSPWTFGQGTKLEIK too.
2.27

Now give it for Hu10 (antibody, IgG4, V domains shown, humanized IgG4) VH: EVQLVESGGGLVKPGGSLRLSCAASGFTFSSYHMSWVRQAPGKGLELVSAINSNDINTYYLDTVKGRFTISRDIAKNSLYLQMNSLRAEDTAVYYCARHEDYYGFAMDYWGQGTLVTVSS VL: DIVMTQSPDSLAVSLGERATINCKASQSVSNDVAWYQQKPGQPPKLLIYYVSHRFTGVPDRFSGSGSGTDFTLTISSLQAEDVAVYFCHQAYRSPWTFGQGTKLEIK too.
4.17
